tested on: P. aeruginosa (ATCC 19660); test: Antibiotic susceptibility (MIC, Microscan® MIC Plus Type 2 panel) with rBPI21/P123 and EDTA; assay type: cell-based; design: key: R: resistant; I: intermediate; S: susceptible; conditions: rBPI21/P123 at 64 μg/ml rBPI21; With 0.05% EDTA
observed_property: susceptibility interpretation of MIC (superscript)

compound	measured_result
O=C(N[C@H](CO)[C@H](O)c1ccc([N+](=O)[O-])cc1)C(Cl)Cl [Chloramphenicol]	S
O=C(O)C1=C(CSc2nnnn2CS(=O)(=O)O)CS[C@@H]2[C@H](NC(=O)[C@H](O)c3ccccc3)C(=O)N12 [Cefonicid]	S
CO/N=C(\C(=O)N[C@@H]1C(=O)N2C(C(=O)O)=C(CSc3nc(=O)c(=O)[nH]n3C)CS[C@H]12)c1csc(N)n1 [Ceftriaxone]	S
CC1(C)S[C@@H]2[C@H](NC(=O)[C@H](NC(=O)N3CCNC3=O)c3ccccc3)C(=O)N2[C@H]1C(=O)O [Azlocillin]	S
CC(C)(O/N=C(\C(=O)N[C@@H]1C(=O)N2C(C(=O)[O-])=C(C[n+]3ccccc3)CS[C@H]12)c1csc(N)n1)C(=O)O [Ceftazidime]	S

Then there is this compound:
Reported susceptibility interpretation of MIC (superscript) of CCN[C@@H]1C[C@H](N)[C@@H](O[C@H]2OC(CN)=CC[C@H]2N)[C@H](O)[C@H]1O[C@H]1OC[C@](C)(O)[C@H](NC)[C@H]1O [Netilmicin] : S
